Test system: A549 NSCLC
PROTOCOL TEXT: NCI tumour cell line growth inhibition, 48 h
Where a SMILES comes first, the peptide text is derived from it. [ ]: non-standard residue; d: D form. The star is where a group is joined. X28 = COC1=CC(=O)N(C(=O)[C@@H](O*)C(C)C)[C@H]1Cc1ccccc1; Bn2Val = CC(C)[C@@H](C(=O)*)N(Cc1ccccc1)Cc1ccccc1; NMeV = CN[C@H](C(=O)O)C(C)C; dNMeA = CN[C@H](C)C(=O)O
MEASURED ENDPOINT: TGI

Look up TGI with A549 NSCLC for this molecule: COC1=CC(=O)N(C(=O)[C@@H](OC(=O)[C@@H](C)N(C)C(=O)[C@@H]2CCCN2C(=O)[C@H](C(C)C)N(C)C(=O)[C@@H](NC(=O)[C@H](C(C)C)N(Cc2ccccc2)Cc2ccccc2)C(C)C)C(C)C)[C@H]1Cc1ccccc1 (Bn2Val-V[NMeV]P[dNMeA]-X28)
> 100 µM

Can you handle COC(=O)[C@@H]1[C@H](O)CCC2=C(CC(=O)c3ccoc3)[C@H](C)CC[C@]21C next?
> 50 µM

Can you handle N#C/C(=C/n1c(=S)[nH]c2ccccc21)C(N)=O next?
> 100 µM

As a next step, examine the molecule that follows.
Look up TGI with A549 NSCLC for this molecule: COc1ccc(C2S/C(=C\c3cccc(OC)c3)C(=O)N2NC(=O)Cc2ccccc2)cc1 (centres undefined)
> 100 µM
